Measured values drawn from patent US8658604B2 for this set.

TARGET: Thrombin, from Human Plasma (Homo sapiens, UniProt P00734)
TEST_DETAILS: Enzymatic assay, thrombin
Where a SMILES comes first, the peptide text is derived from it.
REPORTED_METRIC: Thrombin at 100 μM % (%)
Answer in %, number only, no unit symbol.

Quick one: Thrombin at 100 μM % of CCCC[C@@H]1NC(=O)[C@@H]2CCCN2C(=O)[C@H]2CCCN2C(=O)[C@H](CCC(N)=O)NC(=O)[C@@H]2CSSC[C@H](NC1=O)C(=O)N[C@@H]([C@@H](C)O)C(=O)N[C@@H](C)C(=O)N[C@@H](CO)C(=O)N[C@@H]([C@@H](C)CC)C(=O)N1CCC[C@H]1C(=O)N1CCC[C@H]1C(=O)N[C@@H](CCC(N)=O)C(=O)N2 [Ex. 91] (HELM PEPTIDE1{[Nle].C.T.A.S.I.P.P.Q.C.Q.[dP].P}$PEPTIDE1,PEPTIDE1,2:R3-10:R3|PEPTIDE1,PEPTIDE1,1:R1-13:R2$$$V2.0) ?
13.5
